Assay: Anticonvulsive action, s.c. pentetrazol (PTZ), mouse i.p.
Type: in vivo
Details: ip; mouse i.p., s.c. pentetrazol, 300 mg/kg; read-out: Action, % of the protected animals (PTZ)
Below is a list of entries, each paired with its recorded responders at 300 mg/kg value.
The answer is to be given in %; state only the numeric part.

Here's what some known entries look like.
Query: Look up responders at 300 mg/kg: O=c1[nH]nnc2nn(Cc3cccc(Cl)c3)cc12 [Compound 5]
Result: 0

Query: // repeat for Cc1c2c(=O)[nH]nnc2nn1Cc1ccccc1Cl [Compound 10] and report
Result: 0

Query: Please do the same for O=c1[nH]nnc2nn(Cc3ccc(F)cc3)cc12 [Compound 7] as well.
Result: 100

Query: Now the same for O=c1[nH]nnc2nn(Cc3ccc(Cl)cc3)cc12 [Compound 8]
Result: 100

Please examine the following record next.
Query: Would you mind telling me what responders at 300 mg/kg value was observed for Cc1ccccc1Cn1cc2c(=O)[nH]nnc2n1 [Compound 4] ?
Result: 100
